# experimental target: Kdr (Homo sapiens)
# Construct: Kinases are expressed as either kinase domains or full length constructs; made in house
# Sequence (P35968 20-1356, species assumed): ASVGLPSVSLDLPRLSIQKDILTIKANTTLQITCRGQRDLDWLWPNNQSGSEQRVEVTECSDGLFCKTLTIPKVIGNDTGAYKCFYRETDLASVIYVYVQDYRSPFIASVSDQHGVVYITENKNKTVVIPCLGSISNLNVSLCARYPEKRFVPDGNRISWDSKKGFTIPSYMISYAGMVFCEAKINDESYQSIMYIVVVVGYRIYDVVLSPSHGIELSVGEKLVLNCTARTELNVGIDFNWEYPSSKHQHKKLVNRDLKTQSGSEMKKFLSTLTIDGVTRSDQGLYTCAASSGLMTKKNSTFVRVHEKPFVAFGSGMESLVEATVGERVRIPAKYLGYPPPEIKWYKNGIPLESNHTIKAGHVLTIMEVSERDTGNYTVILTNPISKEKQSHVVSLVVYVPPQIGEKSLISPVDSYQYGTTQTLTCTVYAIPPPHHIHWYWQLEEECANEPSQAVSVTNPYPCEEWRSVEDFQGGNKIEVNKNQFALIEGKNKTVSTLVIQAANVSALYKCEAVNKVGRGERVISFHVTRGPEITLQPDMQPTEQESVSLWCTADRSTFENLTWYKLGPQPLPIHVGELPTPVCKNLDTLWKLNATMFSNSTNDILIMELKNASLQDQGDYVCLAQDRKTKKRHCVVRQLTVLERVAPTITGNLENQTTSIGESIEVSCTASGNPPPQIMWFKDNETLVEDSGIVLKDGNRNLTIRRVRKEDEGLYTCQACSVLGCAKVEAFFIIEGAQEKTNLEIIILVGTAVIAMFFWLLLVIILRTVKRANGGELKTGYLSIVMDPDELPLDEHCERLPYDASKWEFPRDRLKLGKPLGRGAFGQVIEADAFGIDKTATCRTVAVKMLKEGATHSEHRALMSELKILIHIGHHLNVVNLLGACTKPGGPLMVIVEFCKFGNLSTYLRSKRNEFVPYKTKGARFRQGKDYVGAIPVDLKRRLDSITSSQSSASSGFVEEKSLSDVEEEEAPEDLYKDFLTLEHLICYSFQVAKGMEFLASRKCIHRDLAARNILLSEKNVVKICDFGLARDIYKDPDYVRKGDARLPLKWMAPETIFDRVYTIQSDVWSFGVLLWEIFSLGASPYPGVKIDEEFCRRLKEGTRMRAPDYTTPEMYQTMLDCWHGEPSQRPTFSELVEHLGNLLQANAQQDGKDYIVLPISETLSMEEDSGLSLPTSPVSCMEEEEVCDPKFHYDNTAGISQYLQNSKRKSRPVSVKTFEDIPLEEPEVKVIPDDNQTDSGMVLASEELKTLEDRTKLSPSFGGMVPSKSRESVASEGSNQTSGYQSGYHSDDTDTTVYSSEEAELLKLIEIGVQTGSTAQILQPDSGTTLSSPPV
# protocol details: Kinase inhibition assay (33P transfer), Kdr
# Format: biochemical
# study conditions: Table 3; read-out: KDR-1
Exercise: for every item that follows, state its recorded IC50.

{"columns": ["compound", "observed"],
 "data": [
  ["COc1ccc(Nc2ncnc(Nc3cc(-c4ccco4)n[nH]3)n2)cc1OC", "< 1.05 µM"]
]}

Hello, I would appreciate it if you could give IC50 for each entry below.
1. Clc1ccccc1Nc1ncnc(-n2cccc2)n1
2. COc1cc(Nc2ncnc(N3CCOCC3)n2)cc(OC)c1OC
3. CCN(CC)CCCNc1ccc(-c2ncnc(Nc3cc(OC)c(OC)c(OC)c3)n2)cn1
4. NC(=O)c1cccc(Nc2ncnc(-n3c(N)nc4ccccc43)n2)c1
5. COc1cc(Nc2ncnc(Nc3ccc(C(C)C)cc3)n2)cc(OC)c1OC

Result:
1: > 16.6 µM; 2: > 13 µM; 3: 5.13 to 7.49 µM; 4: < 1.15 µM; 5: 1.01 to 6.07 µM

Hello, I would appreciate it if you could give IC50 for each entry below.
1. NS(=O)(=O)c1ccc(Nc2ncnc(-n3c(=O)[nH]c4ccccc43)n2)cc1
2. COc1cc(Nc2ncnc(Nc3nc4ccccc4n3C)n2)cc(OC)c1OC

Result:
1: 1.04 to 6.26 µM; 2: < 0.982 µM

Hello, I would appreciate it if you could give IC50 for each entry below.
1. Nc1ncnc(Nc2cccc(C(F)(F)F)c2)n1
2. COc1cc(Nc2ncnc(-n3c(Nc4ccc5cn[nH]c5c4)nc4ccccc43)n2)cc(OC)c1OC
3. COc1cc(Nc2ncnc(Nc3ccc(N)cc3)n2)cc(OC)c1OC
4. CCOc1ccc(Nc2ncnc(-n3c(N)nc4ccccc43)n2)cc1OCC
5. COc1ccc(Nc2ncnc(-n3c(N)nc4ccccc43)n2)cc1O

Result:
1: > 17.6 µM; 2: 0.785 to 4.71 µM; 3: 1.09 to 6.51 µM; 4: 1.02 to 6.13 µM; 5: < 1.14 µM
